assay: Identifying Small Molecule Inhibitors of Pancreatic Cancer Stem Cells (SN12C, Adherent) (AID 1259358); settings: viability/growth inhibition; series mostly up to 46.1 µM;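 further: cell survival measured after 48 h of compound exposure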; further: potency means the concentration at half of the fitted maximal effect
Records with an inconclusive call do not appear. The source made the active and inactive calls. The call rests on the fitted dose curve; in most records, active means well fitted cell-killing curve with a large enough effect; inconclusive means small, poorly fitted or top-dose-only effect; inactive means flat fitted curve, though single readings scatter.
value_kind: Potency

Some compounds with recorded Potency:
Item CC(C)c1ccc(Cn2ccc3c4c(N)nc(NC5CC5)nc4ccc32)cc1 has what recorded Potency? 7430 nM (active)

Item COc1cc2c(Oc3ccc4[nH]c(C)cc4c3F)ncnc2cc1OCCCN1CCCC1 has what recorded Potency? 2350 nM (active)

Item CCOc1cc2ncc(C#N)c(Nc3ccc(F)c(Cl)c3)c2cc1NC(=O)C=CCN(C)C has what recorded Potency? 209 nM (active)

Item O=C(C=Cc1cccnc1)NCCCCC1CCN(C(=O)c2ccccc2)CC1 has what recorded Potency? inactive

Item Cn1c(=O)n(-c2ccc(C(C)(C)C#N)cc2)c2c3cc(-c4cnc5ccccc5c4)ccc3ncc21 has what recorded Potency? 74.3 nM (active)

Item O=C(NCCS(=O)(=O)c1ccc(C(F)(F)F)cn1)c1ccc(Cl)cc1 has what recorded Potency? inactive

Item Cc1ccc(C(N)=O)cc1Nc1nccc(-c2cn(C(C)C)c3cnccc23)n1 has what recorded Potency? inactive

Item O=C(c1ccc(Nc2nccc(-c3cc4ccccc4s3)n2)cc1)N1CCC(N2CCCC2)CC1 has what recorded Potency? 26400 nM (active)

Below are 4 compounds. Give each one its Potency.
1. CCCCc1nc2cc(C=CC(=O)NO)ccc2n1CCN(CC)CC
2. COc1cc2ncnc(Nc3ccc(F)c(Cl)c3)c2cc1NC(=O)C=CCN1CCCCC1
3. CC(C)=CCCC(C)=CCCC(C)=CCSc1ccccc1C(=O)O
4. CC(=O)OCCN1C(=O)c2c(C)nc3ccc(S(=O)(=O)N4CCOCC4)cc3c2C1=O

["2960 nM (active)", "20900 nM (active)", "inactive", "inactive"]
